Origin of measurements: PubChem BioAssay AID330

# System: P388 leukemia ip, CD2F1 mice, survival T/C
# ASSAY OVERVIEW: NCI In Vivo Anticancer Drug Screen. Data for tumor model P388 Leukemia (intraperitoneal) in CD2F1 (CDF1) mice
# DETAILS: endpoint: median survival time; dose: 30.0 mg/kg/injection; schedule: Q01DX005 (ip); vehicle: saline with Tween-80
Toxic doses and inconclusive results are not listed. Rule for the calls: active = survival T/C of 150% or more; inactive = T/C below 125% in these data.
Choose one outcome from this list and give only that: True (active), False (inactive)

Reference set (8 entries):
- COMPOUND: "CC(C)(C)NCc1cc(Nc2ccnc3cc(Cl)ccc23)cc(-c2ccc(Cl)cc2)c1O"
  GROUP LABEL: "False"
- COMPOUND: "CCCn1c(C)nc2cc(C(F)(F)F)cc([N+](=O)[O-])c21"
  GROUP LABEL: "False"
- COMPOUND: "Cc1ccc2c(c1)nc(C)c(=O)n2CC1CCCN2CCCC[C@H]12 (some centres undefined)"
  GROUP LABEL: "False"
- COMPOUND: "Nc1ccc(CCCCc2ccc(S(=O)(=O)F)cc2Cl)c(Cl)c1"
  GROUP LABEL: "False"
- COMPOUND: "CCCCOc1ccc(/C=N/NC(=O)CNC(=O)Nc2cccc([N+](=O)[O-])c2)cc1"
  GROUP LABEL: "False"
- COMPOUND: "N#Cc1c2c(c(N3CCCCC3)n3c1nc1ccccc13)CCC2"
  GROUP LABEL: "False"
- COMPOUND: "O=C(NCc1ccco1)Nc1cccc2c(NC(=O)NCc3ccco3)cccc12"
  GROUP LABEL: "False"
- COMPOUND: "O=C(Nc1ccc(Cl)cc1)Nc1nnc(-c2ccc(F)cc2)o1"
  GROUP LABEL: "False"

# fetch the recorded call for "Fc1ccccc1C(Nc1nncs1)Nc1nncs1" here
False

# fetch the recorded call for "Nc1nc(N)c2nc(-c3ccc([N+](=O)[O-])cc3)c(Cl)nc2n1" here
False

# fetch the recorded call for "COc1cc(C2c3c(oc4ccccc4c3=O)Oc3oc4ccccc4c(=O)c32)cc(OC)c1O" here
False

# fetch the recorded call for CN1C(NC(=O)C(C)(C)O)C(C)(C)C(C)(C)C1NC(=O)C(C)(C)O (centres undefined) here
False

# fetch the recorded call for CCC1C2CC3C4N(C)c5ccccc5C45CC(C2C5O)N3C1O (centres undefined) here
False

# fetch the recorded call for "C[C@]12C=CC(=O)NC[C@@H]1CC[C@@H]1[C@@H]2CC[C@]2(C)[C@@H](OC(=O)COc3ccc(N(CCCl)CCCl)cc3)CC[C@@H]12" here
True
